// reported cell viability per item
Tested on: SEM cells
Assay: cell viability relative to DMSO control; higher = less cytotoxic
Details: HPLM + 10% dialyzed FBS; 48 h; 0.00702 µM
Record the value in %, omitting the unit from your answer.

[[record]]
smi = "O=C(NCCO[N+](=O)[O-])c1cccnc1"
value_reported = 107

[[record]]
smi = "COc1ccc2c(OCc3nnc4ccc(-c5ccccc5)nn34)ccnc2c1"
value_reported = 101


Moving on to another compound below.
Measured cell viability, `COc1cccc(Nc2c(C(N)=O)cnc3c(C)cc([S+](=O)([O-])c4cccc(C(=O)N(C)C)c4)cc23)c1` : 134

###

System: P12-Ichikawa
Experiment: cell viability relative to DMSO control; higher = less cytotoxic
Settings: HPLM + 10% dialyzed FBS; 48 h; 1.71 µM
metric: cell viability (%)
Record the value in %, omitting the unit from your answer.

Solved entries (count: 4):
[[record]]
compound = "CN1CCN(Cc2ccc(NC(=O)Nc3ccc(Oc4cc(NC(=O)C5CC5)ncn4)cc3)cc2C(F)(F)F)CC1"
value_reported = 9.49

[[record]]
compound = "CC(=O)Oc1cc2c(s1)CCN(C(C(=O)C1CC1)c1ccccc1F)C2.Cl (stereo not given)"
value_reported = 112

[[record]]
compound = "C[N+](C)(C)CC(=O)O.[Cl-]"
value_reported = 89.8

[[record]]
compound = "Cn1c(=O)c2[nH]cnc2n(C)c1=O"
value_reported = 109


Moving on to another compound below.
Measured cell viability, `CCC[C@@H](C=O)NC(=O)[C@H](CC(C)C)NC(=O)[C@H](CC(C)C)NC(=O)OCc1ccccc1` : 118

###

// reported cell viability per item
System: SEM cells
Test: cell viability relative to DMSO control; higher = less cytotoxic
Conditions: RPMI 5 mM glucose + 10% dialyzed FBS; 48 h; 0.000781 µM
Record the value in %, omitting the unit from your answer.

[[record]]
molecule = "O=[S+]([O-])(/N=C/c1c(O)ccc2ccccc12)c1cccs1"
value_reported = 98.7

[[record]]
molecule = "CC[C@H](NC(C)C)[C@H](O)c1ccc(O)c2[nH]c(=O)ccc12"
value_reported = 100

[[record]]
molecule = "Oc1cc2c(cc1O)C1c3ccc(O)c(O)c3OCC1(O)C2 (stereo not given)"
value_reported = 92.7


Measured cell viability, `CCCOc1ccc2[nH]c(NC(=O)OC)nc2c1` : 120

Measured cell viability, `FC(F)(F)C1=CC=C2C(SCCCCCO\C3=C\O\C(CN4CCOCC4)=C/C3=O)=CC=NC2=C1` : 112

Measured values drawn from the supplement of paper PMC11451515 for this set.
